Recorded values, source patent US20230303504A1.

assay info: physchem
Assay type: physicochemical
condition notes: water, thermodynamic from solid, Apparent Solubility of RM-5071 (concentration limit)
Description: The apparent solubility of RM-5071 was tested using several solvents, specifically: DMF, DMSO, acetonitrile (ACN), water, ACN/water mixture, methanol, isopropanol, and ethanol. United States Pharmacopeia (USP) classify the solubility regardless of the solvent used, just following defined criteria summarized in Table 10. The solute was initially dissolved in each of the solvents or solvent system at a lmg/mL concentration. […]
measurement label: solubility

*Q* solubility lookup needed for "O=C(Nc1ncc([N+](=O)[O-])s1)c1ccccc1O" , thanks.
*A* < 5 µg/mL

====

assay info: physchem
Type: physicochemical
condition notes: organic solvent or mixture, thermodynamic from solid, Apparent Solubility of RM-5071 (concentration limit)
Procedure: The apparent solubility of RM-5071 was tested using several solvents, specifically: DMF, DMSO, acetonitrile (ACN), water, ACN/water mixture, methanol, isopropanol, and ethanol. United States Pharmacopeia (USP) classify the solubility regardless of the solvent used, just following defined criteria summarized in Table 10. The solute was initially dissolved in each of the solvents or solvent system at a lmg/mL concentration. […]
measurement label: solubility
Output should be the measured figure followed by the unit it is expressed in.

*Q* solubility lookup needed for "O=C(Nc1ncc([N+](=O)[O-])s1)c1ccccc1O" , thanks.
*A* 33 µg/mL

====

assay info: physchem
Assay type: physicochemical
condition notes: organic solvent or mixture
Description: The appropriate amine is heated with an equimolar amount of either tizoxanide or RM4848 in methanol until a clear solution is obtained. Any small amounts of undissolved solid are removed by filtration. On cooling, the desired salt may crystallize immediately; addition of an equal volume of a solvent, such as diethyl ether (for the tizoxanide salts) or concentration to a small volume, then addition of excess ether (for salts of RM4848), may be used to obtain solid products. […]
measurement label: solubility

*Q* solubility lookup needed for "O=C(Nc1ncc([N+](=O)[O-])s1)c1ccccc1O" , thanks.
*A* ~5000 µg/mL

====

assay info: physchem
Assay type: physicochemical
measurement label: pKa
Please give the numeric answer without any surrounding text.

*Q* pKa lookup needed for "O=C(Nc1ncc([N+](=O)[O-])s1)c1ccccc1O" , thanks.
*A* 8.8

====

assay info: physchem
Type: physicochemical
condition notes: aqueous with cosolvent or surfactant or cyclodextrin, thermodynamic from solid, Apparent Solubility of RM-5071 (concentration limit)
measurement label: solubility

*Q* solubility lookup needed for "O=C(Nc1ncc([N+](=O)[O-])s1)c1ccccc1O" , thanks.
*A* > 1000 µg/mL
